# STUDY_TARGET: T1, hPD-L1-His (human, UniProt Q9NZQ7 19-238)
# T1 construct: Bought protein; also called hPD-L1-His (manufactured by Edison); not shown: His tag
# T1 sequence (Q9NZQ7 19-238 limits assumed): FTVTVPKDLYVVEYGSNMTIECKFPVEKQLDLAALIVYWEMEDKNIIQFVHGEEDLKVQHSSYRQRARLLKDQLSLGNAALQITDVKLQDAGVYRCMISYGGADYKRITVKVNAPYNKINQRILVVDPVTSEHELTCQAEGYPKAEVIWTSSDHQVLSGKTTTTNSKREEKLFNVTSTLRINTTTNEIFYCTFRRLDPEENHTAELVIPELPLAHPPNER
# RUN_DESCRIPTION: SPR (Biacore T200), antibody on Protein A chip, hPD-L1-His injected, 1:1 fit
OBSERVABLE: kon (M⁻¹ s⁻¹)
Give bare numbers, in M⁻¹ s⁻¹.

{"columns": ["BINDER", "U", "kon"],
 "data": [
  ["7E4-H1K1-IgG1 (antibody, V domains shown) VH: QVQLVQSGAEVKKPGASVKVSCKASGFKFTDYAIHWVRQAPGQSLEWMGVISIYYGEASYNQKFKDRVTLTVDTSASTAYMELSSLRSEDTAVYYCAREDYYGSSSYFDYWGQGTLVTVSS VL: DNQLTQSPSFLSASVGDRVTITCSASSSVSSSYLHWYQQKPGAAPKPLIHRTSNLASGVPSRFSGSGSGTEFTLTISSLQPEDFATYYCQQWSGYPYTFGGGTKLEIK", "M⁻¹ s⁻¹", 118000],
  ["6A11-H2K4-IgG1 (antibody, V domains shown) VH: EVQLVESGGGLVQPGGSLRLSCAASGFTFSSFGMHWVRQAPGKGLEWVSYISSGSNTIYYADTVKGRFTISRDNAKNSLYLQMNSLRAEDTAVYYCTRNGYDGWYAMDYWGQGTTVTVSS VL: EIVLTQSPATLSASPGERATLSCSASSSVSYIHWFQQKPGQSPRRWIYDTSKLASGIPARFSGSGSGTSYTLTISSMEPEDAATYYCQQWSTNPFTFGQGTKLEIKR", "M⁻¹ s⁻¹", 218000],
  ["7E4-H3K3-IgG1 (antibody, V domains shown) VH: QVQLVQSGAEVVKPGASVKISCKGSGFKFTDYAIHWVRQAPGKSLEWMGVISIYYGEASYNQKFKDKVTLTVDTSASTAYMELSSLRSEDTAIYYCAREDYYGSSSYFDYWGQGTLLTVSS VL: ENVLTQSPSFLSASVGDRVTMTCSASSSVSSSYLHWYQQKSGASPKPLIHRTSNLASGVPSRFSGSGSGTEYTLTISSVQPEDFATYYCQQWSGYPYTFGGGTKLEIK", "M⁻¹ s⁻¹", 150000]
]}

Report kon for each item below.
1. 7E4-H1K3-IgG1 (antibody, V domains shown) VH: QVQLVQSGAEVKKPGASVKVSCKASGFKFTDYAIHWVRQAPGQSLEWMGVISIYYGEASYNQKFKDRVTLTVDTSASTAYMELSSLRSEDTAVYYCAREDYYGSSSYFDYWGQGTLVTVSS VL: ENVLTQSPSFLSASVGDRVTMTCSASSSVSSSYLHWYQQKSGASPKPLIHRTSNLASGVPSRFSGSGSGTEYTLTISSVQPEDFATYYCQQWSGYPYTFGGGTKLEIK
2. 7E4-H3K1-IgG1 (antibody, V domains shown) VH: QVQLVQSGAEVVKPGASVKISCKGSGFKFTDYAIHWVRQAPGKSLEWMGVISIYYGEASYNQKFKDKVTLTVDTSASTAYMELSSLRSEDTAIYYCAREDYYGSSSYFDYWGQGTLLTVSS VL: DNQLTQSPSFLSASVGDRVTITCSASSSVSSSYLHWYQQKPGAAPKPLIHRTSNLASGVPSRFSGSGSGTEFTLTISSLQPEDFATYYCQQWSGYPYTFGGGTKLEIK

**A:**
1: 128000; 2: 147000
